Assay: Apparent half-life after single intravenous bolus of 1 mg/kg in dogs
Type: ADME, organism-based, Canis lupus familiaris
Set-up: dose 1 mg/kg, route intravenous
Details: dog, in vivo
MEASURED QUANTITY: half-life (min)
Express it in min; write the number only.

Quick one: half-life of O=C(O)C(=O)c1cn(Cc2ccccc2)c2ccc(-c3ccc(OC(F)(F)F)cc3)cc12 [TIPLASININ] ?
224

###

Experiment: AUC after administration at 100 mg/kg/day in dogs
Format: ADME, organism-based, Canis lupus familiaris
Details: dog, plasma
MEASURED QUANTITY: AUC

Quick one: AUC of O=C(O)C(=O)c1cn(Cc2ccccc2)c2ccc(-c3ccc(OC(F)(F)F)cc3)cc12 ?
~613 µg·h/mL

###

Test: AUC0-infinity after single intravenous bolus of 1 mg/kg in dogs
Format: ADME, organism-based, Canis lupus familiaris
Set-up: time infinity, dose 1 mg/kg, route intravenous
Conditions: dog, plasma
MEASURED QUANTITY: AUC(0-inf) (ng·h/mL)
Express it in ng·h/mL; write the number only.

Quick one: AUC(0-inf) of O=C(O)C(=O)c1cn(Cc2ccccc2)c2ccc(-c3ccc(OC(F)(F)F)cc3)cc12 [TIPLASININ] ?
20500

###

Each entry below carries its measured pIC50, system: Plasminogen activator inhibitor 1 (Homo sapiens).
Sequence (P05121 whole entry): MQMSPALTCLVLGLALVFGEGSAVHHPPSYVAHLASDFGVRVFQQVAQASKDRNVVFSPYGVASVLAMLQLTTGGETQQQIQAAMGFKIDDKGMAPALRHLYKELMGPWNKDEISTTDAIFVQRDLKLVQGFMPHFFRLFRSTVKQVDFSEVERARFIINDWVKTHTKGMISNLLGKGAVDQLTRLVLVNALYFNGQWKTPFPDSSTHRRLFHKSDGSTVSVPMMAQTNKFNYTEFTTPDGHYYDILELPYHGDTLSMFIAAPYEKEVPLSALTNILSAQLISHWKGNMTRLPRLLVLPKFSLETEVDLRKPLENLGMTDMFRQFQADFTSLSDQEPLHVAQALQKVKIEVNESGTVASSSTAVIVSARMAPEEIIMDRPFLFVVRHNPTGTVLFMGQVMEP
Here pIC50 is given on a logarithmic scale as minus log10 of the concentration in mol/L.

Worked examples, 8 molecules total:
{"columns": ["GIVEN SMILES", "pIC50"],
 "data": [
  ["O=C(O)C(=O)c1cn(Cc2ccc(F)cc2)c2cc(-c3ccccc3)ccc12", 4.46],
  ["O=C(O)C(=O)c1cn(Cc2ccccc2)c2cc(-c3ccccc3)ccc12", 4.59],
  ["O=C(Nc1ccc(Cl)c(Cl)c1)c1ccc(CNc2cc([N+](=O)[O-])ccc2C(=O)O)cc1", 4.89],
  ["O=C(O)c1ccc(-n2c(-c3ccccc3)cc3c2CCc2ccccc2-3)cc1O", 4.89],
  ["Cc1cccc(-c2ccc3c(c2)c(C(=O)C(=O)O)cn3Cc2ccc(C(C)(C)C)cc2)c1", 5.07],
  ["COc1cccc(-c2ccc3c(c2)c(C(=O)C(=O)O)cn3Cc2ccc(C(C)(C)C)cc2)c1", 4.68],
  ["CC(C)(C)c1ccc(Cn2cc(C(=O)C(=O)O)c3cc(-c4cccc(C(C)(C)C)c4)ccc32)cc1", 5.00],
  ["CC(C)(C)c1ccc(Cn2cc(C(=O)C(=O)O)c3cc(-c4ccc(OC(F)(F)F)cc4)ccc32)cc1", 4.80]
]}

Note: attention shifts to another entry.
Quick one: pIC50 of O=C(O)C(=O)c1cn(Cc2ccccc2)c2cc(-c3ccc(OC(F)(F)F)cc3)ccc12 ?
4.77

###

Experiment: Cmax after single intravenous bolus of 1 mg/kg in rats
Format: ADME, organism-based
Set-up: dose 1 mg/kg, route intravenous
Conditions: rat, in vivo
MEASURED QUANTITY: Cmax
Don't forget the unit after the value.

Quick one: Cmax of O=C(O)C(=O)c1cn(Cc2ccccc2)c2ccc(-c3ccc(OC(F)(F)F)cc3)cc12 ?
4950 ng/mL

###

Experiment: Half-life after oral dose of compound at 3 mg/kg in dogs
Assay type: ADME, organism-based, Canis lupus familiaris
Design: dose 3 mg/kg, route oral
Details: dog, in vivo
MEASURED QUANTITY: half-life (h)
Express it in h; write the number only.

Quick one: half-life of O=C(O)C(=O)c1cn(Cc2ccccc2)c2ccc(-c3ccc(OC(F)(F)F)cc3)cc12 ?
5.42
